experimental.protocol: Mouse pharmacokinetics, single dose
Type: in vivo, male C57BL/6 mice
condition.summary: male, C57BL/6, mouse, brain and plasma, po, 10 mg/kg, male C57BL/6 mice, oral dose 10 mg/kg, based on AUC; read-out: Free Brain/Plasma Ratio
Each record here notes measured unbound brain-to-plasma ratio (Kp,uu).
Answer with a number only.

Nc1ncc(-c2cn(C34CC(F)(C3)C4)c([C@@H](O)C(F)(F)F)n2)cc1OC(F)(F)F (single isomer, unassigned) [Example 1a]: 0.92
CC(C)[C@H](O)c1nc(-c2cnc(N)c(C(F)(F)F)c2)cn1C12CC(F)(C1)C2 (single isomer, unassigned) [Example 4b]: 1.06

unbound brain-to-plasma ratio (Kp,uu) for CC(C)[C@H](O)c1nc(-c2cnc(N)c(OC(F)(F)F)c2)cn1C12CC(N3CCOCC3)(C1)C2 [Compound 15, reference compound] is 0.16

meta.source: patent US11560366B2
